Let's look at some molecules and their measured Efficacy (%).
Biological target: CIB1 and αIIb interaction (CIB1-GST : F-αIIb peptide) (Homo sapiens, UniProt Q99828)
Construct: made in house; host or cells: BL-21 plus RIL cells (E. coli)
Sequence (Q99828 whole entry): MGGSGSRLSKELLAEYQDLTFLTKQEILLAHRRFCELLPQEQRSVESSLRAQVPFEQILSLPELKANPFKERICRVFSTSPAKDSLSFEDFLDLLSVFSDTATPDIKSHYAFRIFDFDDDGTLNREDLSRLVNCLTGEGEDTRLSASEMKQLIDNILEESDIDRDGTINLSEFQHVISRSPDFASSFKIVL
Experiment: FP assay, 1536-well qHTS format (primary and confirmatory screen)
Format: binding
Conditions: qHTS primary screen hits, Table S2; negative = inhibition
Note: unit % is implicit; provide only the numeric part.

Observe how each entry below is paired with its result.
INSERT INTO measurements (smiles_data, metric, unit_tag, result_value) VALUES
  ('CN(C)[C@@H]1C(=O)C(C(=O)NCN2CCCC2)=C(O)[C@@]2(O)C(=O)C3=C(O)c4c(O)cccc4[C@@](C)(O)[C@H]3C[C@@H]12', 'Efficacy (%)', '%', -27),
  ('COc1ccc(Br)cc1S(=O)(=O)NC(=O)/C=C/c1ccccc1Cc1ccc2ccccc2c1', 'Efficacy (%)', '%', -50),
  ('CC1=NN(c2ccccc2)C(=O)C1', 'Efficacy (%)', '%', -46);

Here is another molecule to look at.
Prompt line: Using the record for CCCCCCCc1ccc(CCc2cccc(O)c2C(=O)O)cc1 , state its measured Efficacy (%).
Response line: -33

====

Molecular target: CIB1 and αIIb interaction (CIB1-GST : F-αIIb peptide) (Homo sapiens, UniProt Q99828)
Construct: made in house; host or cells: BL-21 plus RIL cells (E. coli)
Test: FP assay, 1536-well qHTS format (primary and confirmatory screen)
Format: binding
Conditions: Table S3, confirmatory screen; read-out: IC50 [μM] (confirmatory screen)
Let's look at some molecules and their measured IC50.
Note: unit µM is implicit; provide only the numeric part.

Observe how each entry below is paired with its result.
INSERT INTO results (molecule, metric, result_value) VALUES
  ('COc1ccc2[nH]c([S+]([O-])Cc3ncc(C)c(OC)c3C)nc2n1 (stereo not shown)', 'IC50', 25.1),
  ('Cc1ccc2c(c1)/C(=C\C(=O)c1cccs1)C(=O)N2.O=C(O)C(F)(F)F', 'IC50', 11.2),
  ('CN(C(=O)c1cccs1)c1cccnc1.O=C(O)C(F)(F)F', 'IC50', 31.6);

Here is another molecule to look at.
Prompt line: Using the record for Cn1cc(-c2[nH]c3cc(NC(=O)[C@H](N)C4CCCCC4)cc4c3c2C=NNC4=O)cn1 , state its measured IC50.
Response line: 50.1

====

Let's look at some molecules and their measured CONFIRMATORY SCREEN Curve Class.
Molecular target: CIB1 and αIIb interaction (CIB1-GST : F-αIIb peptide) (Homo sapiens, UniProt Q99828)
Construct: made in house; host or cells: BL-21 plus RIL cells (E. coli)
Experiment: FP assay, 1536-well qHTS format (primary and confirmatory screen)
Assay type: binding
Settings: confirmatory screen, qHTS curve class; negative sign = inhibitory curve
Write no unit; give the number alone.

Prompt line: Using the record for COc1nn(CSP(=S)(OC)OC)c(=O)s1 [NCGC00163724-03] , state its measured CONFIRMATORY SCREEN Curve Class.
Response line: -1.4

Prompt line: Using the record for COc1ccc(C(=O)Nc2nc(-c3ccccc3)cs2)c(NS(=O)(=O)c2ccc(C)cc2)c1.O=C(O)C(F)(F)F [NCGC00262390-01] , state its measured CONFIRMATORY SCREEN Curve Class.
Response line: -1.2

Prompt line: Using the record for CC(=O)N1CCN(c2ccc(OCc3nn(C)c(C)c3-c3cccc4c(CCCOc5cccc6ccccc56)c(C(=O)O)n(Cc5cccnc5)c34)cc2)CC1 [NCGC00347174-02] , state its measured CONFIRMATORY SCREEN Curve Class.
Response line: -2.2

Prompt line: Using the record for Cc1cc(F)ccc1S(=O)(=O)Nc1cnccc1C(=O)Nc1nc(-c2ccccc2)cs1 [NCGC00345106-03] , state its measured CONFIRMATORY SCREEN Curve Class.
Response line: -2.1
